Percent viability listing for selected compounds.
Tested on: MKL-2 cells (VP-MCC)
measurement-notes: qHTS cell viability (CellTiter-Glo, 72 h; primary and follow-up small molecule screen)
Format: cell-based, human
stated-conditions: MKL2, 72h, Log (M) -6.76782
Report field: quantity (unit follows the number).

Completed entries (count: 2):
Cc1cc(Nc2cc(N3CCN(C)CC3)nc(Sc3ccc(NC(=O)C4CC4)cc3)n2)[nH]n1 [Tozasertib, reference compound] | 62.9%
CCS(=O)(=O)c1cccc(-c2cc(C(=O)NC3CCN(C)CC3)c(C)c3[nH]c4ncc(C)cc4c23)c1 [TAK-901, reference compound] | 52.1%

Recorded Percent viability (compound CCn1cc(-c2ccnc3[nH]c(-c4cccc(CN(C)C)c4)cc23)c(-c2ccc(NC(=O)N(C)C)cc2)n1 [GSK-1070916A, reference compound] ): 34.0%

Item: O=C(Nc1cccc(Cl)c1)Nc1ncc(CCNc2ncnc3ccsc23)s1 [SNS-314, reference compound] | Percent viability: 47.9%

---

measurement-notes: qHTS cell viability (CellTiter-Glo, 72 h; primary screen), control cell line
Assay type: cell-based
stated-conditions: human, CRL-7250 cells (control cell line); CRL-7250, Log (M) -5.2907; read-out: Percent viability
measurement-name: viability at 72 h, 5.12 µM (%)
Dear colleague, please return just the value in %, with no unit written.

For reference, reported viability at 72 h, 5.12 µM for COCCn1c2c([n+](Cc3cnccn3)c1C)C(=O)c1ccccc1C2=O [sepantronium bromide, reference compound] stands at -5.4

---

System: control cell lines (HACAT, HEK293T, CRL-7250, NIH-3T3)
measurement-notes: qHTS cell viability, control cell lines as a group (mean AUC, Control.avg)
Type: cell-based
stated-conditions: NPC library; mean AUC of control cell lines
Structures can show the parent of a compound that is named as a salt.
measurement-name: Control_Avg_AUC
// keep it numeric: no unit symbol after the value

Answered cases to consult:
N=C(N)NN=C(/C=C/c1ccc([N+](=O)[O-])o1)/C=C/c1ccc([N+](=O)[O-])o1 [Nitrovin] | 370.412
CCCCCCCCOc1ccccc1C(=O)Nc1ccc(C(=O)OCC[N+](C)(CC)CC)cc1 [Octylonium bromide] | 464.883
CNS(=O)(=O)CCc1ccc2[nH]cc(C3CCN(C)CC3)c2c1 [Naratriptan hydrochloride] | 462.669
COc1cc(/C=C2\CCC/C(=C\c3ccc(O)c(OC)c3)C2=O)ccc1O [Cyclovalone] | 441.636
Cn1c(=O)c2c(ncn2CCO)n(C)c1=O [Etofylline] | 463.112

Control_Avg_AUC measured on Nc1ccc(C(=O)NCC(=O)O)cc1 [Aminohippuric acid] = 470.131

Lab note: measured Control_Avg_AUC of O=S1(=O)OC(c2ccc(O)cc2)(c2ccc(O)cc2)c2ccccc21 [Phenol red] was 477.832

Entry Cc1nc2ccccn2c(=O)c1CCN1CCC(C(=O)c2ccc(F)cc2)CC1 [Pirenperone] ; Control_Avg_AUC = 466.434

Control_Avg_AUC for CC[C@@]1(O)C(=O)OCc2c1cc1n(c2=O)Cc2cc3c(CN(C)C)c(O)ccc3nc2-1 [Topotecan HCl] is 300.661

The compound CCN(CC)CCNC(=O)c1ccc(NC(C)=O)cc1 [Acecainide hydrochloride] showed Control_Avg_AUC equal to 478.381

Quick note, Control_Avg_AUC for CCCC(=O)OC[C@@H](OC(=O)CCC)[C@@H](OC(=O)CCC)[C@H](Cn1c2nc(=O)[nH]c(=O)c-2nc2cc(C)c(C)cc21)OC(=O)CCC [Riboflavin tetrabutyrate] landed at 472.698

Please fill in: Control_Avg_AUC reported for COc1c(C)c2c(c(O)c1C/C=C(\C)CCC(=O)OCCN1CCOCC1)C(=O)OC2 [Mycophenolate mofetil] = 400.588

Item: N=C(N)NC(=O)c1nc(Cl)c(N)nc1N [Amiloride] | Control_Avg_AUC: 489.528

// Control_Avg_AUC value for CCCCC1C(=O)N(c2ccccc2)N(c2ccc(O)cc2)C1=O (stereo not shown) [Oxyphenbutazone] : 418.104

Looking up c1ccc(CC2=NCCN2)cc1 [Tolazoline hydrochloride] , I see its Control_Avg_AUC listed as 460.352

Control_Avg_AUC recorded for this compound, O=C(CCCN1CCC(O)(c2ccc(Br)cc2)CC1)c1ccc(F)cc1 [Bromperidol] , is 466.662

Memo: O=C1CC2(CCCC2)CC(=O)N1CCCCN1CCN(c2ncccn2)CC1 [Buspirone] , reported Control_Avg_AUC: 487.669

Per the record, CCCCCCC[N+](CC)(CC)CCCCc1ccc(Cl)cc1.Cc1ccc(S(=O)(=O)[O-])cc1 [Clofilium tosylate] has Control_Avg_AUC of 418.646

---

Recorded Percent viability, one value per entry.
Test system: MCC26 cells (VN-MCC)
Format: cell-based, human
Unit % implied. Number only.

Consider the following illustrative entries.
CAAAGGAAACCAACAAUAAtt (CAAAGGAAACCAACAAUAATT; chemistry not given here) | 87.6
UAUUGUUGGUUUCCUUUGC (chemistry not given here) | 96.2
GCUUGUACCUCAUAUCAGAtt (GCUUGUACCUCAUAUCAGATT; chemistry not given here) | 90.4
UGAAUGUAGAGAUGCGGUG (chemistry not given here) | 98.4
GCAGGUUCCUUAUCUGUCAtt (GCAGGUUCCUUAUCUGUCATT; chemistry not given here) | 85.0

Lab note: measured Percent viability of AAAUGUUGAUCUCCUUUCC (chemistry not given here) was 97.2

For record AGUCCUUUAUUAAGCGCAAtt (AGUCCUUUAUUAAGCGCAATT; chemistry not given here) the listed Percent viability is 103.7

Looking up AGAUCAACCCAGAUAACUAtt (AGAUCAACCCAGAUAACUATT; chemistry not given here) , I found its Percent viability recorded as 73.1

---

Tested on: UISO cells (VN-MCC)
measurement-notes: qHTS cell viability (CellTiter-Glo, 72 h; primary and follow-up small molecule screen)
Format: cell-based, human
measurement-name: Area under the dose-response curve (AUC) UISO Replicate 3

The examples below pair each entry with its known result.
CS[C@H]1SC[C@H]2C(=O)N(C)[C@@H](C(C)C)C(=O)OC[C@@H](NC(=O)c3cnc4ccccc4n3)C(=O)N[C@@H](C)C(=O)N(C)[C@@H]1C(=O)N(C)[C@@H](C(C)C)C(=O)OC[C@@H](NC(=O)c1cnc3ccccc3n1)C(=O)N[C@@H](C)C(=O)N2C | 136.4
CC[C@@]1(O)C(=O)OCc2c1cc1n(c2=O)Cc2cc3cc(O)ccc3nc2-1 [10-hydroxycamptothecin] | 183.4

Moving on to the next molecule.
Recorded Area under the dose-response curve (AUC) UISO Replicate 3 (molecule O=C1Nc2cc(Br)ccc2/C1=C1/Nc2ccccc2/C1=N\O ): 251.6

---

System: VN-MCC cell lines (MCC13, MCC26, UISO)
measurement-notes: qHTS cell viability, VN-MCC cell lines as a group (mean AUC, VN.MCC.avg)
Type: cell-based, human
stated-conditions: MIPE library, Control AUC minus VN-MCC AUC (therapeutic window), sheet S2E
# Control-VN-MCC >= -7 gives satisfied, anything below gives not satisfied

Worked cases, answers included:
CC(=O)O[C@]1(C(C)=O)CC[C@H]2[C@@H]3C=C(C)C4=CC(=O)CC[C@]4(C)[C@H]3CC[C@@]21C [Megestrol acetate] | not satisfied
O=C(CCc1ccc(O)cc1)c1c(O)cc(O)cc1O [Phloretin] | satisfied
CC#C[C@]1(O)CC[C@H]2[C@@H]3CCC4=CC(=O)CCC4=C3[C@@H](c3ccc(N(C)C)cc3)C[C@@]21C [Mifepristone] | satisfied
C=C1/C(=C\C=C2/CCC[C@]3(C)[C@@H]([C@H](C)/C=C/[C@H](C)C(C)C)CC[C@@H]23)C[C@@H](O)C[C@@H]1O [1-alpha-Hydroxyergocalciferol] | satisfied
C=CC(=O)Nc1cccc(Nc2nc(NC3CCC(N(C)C)CC3)nc3c2ncn3C(C)C)c1 (stereo not shown) [HMSL10084] | not satisfied
O=C(CCCCCCC(=O)Nc1ccccc1)NO [Suberoylanilide hydroxamic acid] | not satisfied

Asked: Could you verify whether the entry CN[C@@H]1[C@H](O)[C@H](NC)[C@H]2O[C@@]3(O)C(=O)C[C@@H](C)O[C@H]3O[C@@H]2[C@H]1O.Cl.Cl [Spectinomycin dihydrochloride] shows Control-VN-MCC of no less than -7?
Given back: satisfied

---

Tested on: MCC13 cells (VN-MCC)
measurement-notes: qHTS cell viability (CellTiter-Glo, 72 h; primary and follow-up small molecule screen)
Type: cell-based, human
stated-conditions: MCC13, 72h, Log (M) -10.1077
Below is a list of entries, each paired with its recorded Percent viability value.
Please give a number only; it is taken to be in %.

O=C(Nc1cccc(Cl)c1)Nc1ncc(CCNc2ncnc3ccsc23)s1 [SNS-314, reference compound] | 92.5
Cc1cc(Nc2cc(N3CCN(C)CC3)nc(Sc3ccc(NC(=O)C4CC4)cc3)n2)[nH]n1 [Tozasertib, reference compound] | 108.5
CCS(=O)(=O)c1cccc(-c2cc(C(=O)NC3CCN(C)CC3)c(C)c3[nH]c4ncc(C)cc4c23)c1 [TAK-901, reference compound] | 98.3

Next molecule, please.
Entry CCn1cc(-c2ccnc3[nH]c(-c4cccc(CN(C)C)c4)cc23)c(-c2ccc(NC(=O)N(C)C)cc2)n1 [GSK-1070916A, reference compound] ; Percent viability = 100.0
